ASSAY METHOD TEXT: soluble fraction after stress (log2 fold change); higher = more stays soluble; pooled small domains, quantitative proteomics
CONDITION DESCRIPTION: stress: pH 4
Short version: soluble fraction (log2) at least -0.2 is Criterion met, less is Criterion not met.

As a guide, the following entries are already answered.
HMDDPQAELLARAVRRVALAAAERTRRNEYGGVYLGLFRQFGISSYRRTPPARLHEALEWLERWRGDLM; Criterion not met
HMIEKVNDYVVRFANVNGTGSASANNLFALAIYRMGVPVTPKNIFPSNIQGLPTWFEVRVSGSGYLARRG; Criterion met
HMNEFGIPDKKLQDIETRVNSMSLEQLNAARSMLIDEQEALNSSTGSASSGRLKEIAAELSTIQKALIAIA; Criterion met
HMFIGFLHQLKEAGVPVSIREYLDFLSGLDKGITNLNTNSFYHFARASLVKDERHYDRFDRTFSEFFEGAL; Criterion not met
HMSLQNTMANFAGGVLVLFLKPFKAGDYIVTKDGEGTVASIGLVYTTLLTIENKRIVIPNSSISNSPITN; Criterion not met

Hi, just wondering whether HMVLGSSVAMGQKIGDSDLTWVEVPLSSAFDRFLSEPEWRGSSDLVAARLLEAGVFLTEDDVVE shows soluble fraction (log2) of -0.2 or higher.
Criterion met

Hi, just wondering whether HMHPVTGRIGTVTAANGLNLRADSSEYANVVATLGYGVDVTVTGERINGFYPVRVGTLSGYVSADYVSFNS shows soluble fraction (log2) of -0.2 or higher.
Criterion not met

---

ASSAY METHOD TEXT: soluble fraction after stress (log2 fold change); higher = more stays soluble; pooled small domains, quantitative proteomics
CONDITION DESCRIPTION: stress: pH 4
Let's look at some sequences and their measured soluble fraction (log2).
Lab note: jot down the number only; don't add units.

Answered cases to consult:
HMKLSKKVTDFLAQMPSKSISPKMLANNLGLADDAGDYKHLLKTIAQLEESKAIEVTAAGNIALPQPE; 0.0669
HMEKAKVPSVIGMTEANAKRTIRDAGFKVGRVTRVESEAYDKGKVIEQQYEAGSELEKKKPISIVVSKGKK; 0.152

What does the data say about its soluble fraction (log2)? Entry: HMAVQPMDQVKAWLAEDNPADIKLLVPVLQKLDLLDYEQVRGEVADRAGVRKSLLDEAVKGN
-0.119

What does the data say about its soluble fraction (log2)? Entry: HMANGTVKWFNTTKGFGFIAPETGGKDVFVHISAVERSGLTGLADDQKVTFDVEAGRDGRESAVNLAL
-0.613

---

ASSAY METHOD TEXT: soluble fraction after stress (log2 fold change); higher = more stays soluble; pooled small domains, quantitative proteomics
CONDITION DESCRIPTION: stress: pH 4
RECORDED METRIC: soluble fraction (log2)
Lab note: jot down the number only; don't add units.

Answered cases to consult:
HMFPNSFSEREKEVVDLLLQAKSNKQIAFSLGITNRTVEYHLGNIFAKLGVSSRSEAILTITNYKNQ; -1.27
HMEAISIYPNPTDNELHLSTSVQEVRIYNMYGIEVTRAANTDRLAVSHLPKGVYLVHADGAVLKMIK; -1.29

What does the data say about its soluble fraction (log2)? Entry: HMPTEAIVLQQIQIRQSPSGNSKSLQQILPGAKIKITSESSVKGWKQVSLDGGQKGWIPTAAIGL
0.302

What does the data say about its soluble fraction (log2)? Entry: HMQQRTVEHVDTAVEALALSIGERAGVDLPYMAHLTGKTQEDLIEDLTGVIFPVPGTEPLRYVTADDYLS
-0.835

What does the data say about its soluble fraction (log2)? Entry: HMGSLVQTAMQAVTKHIHDNAMRVGDTLPGEGHFAETLGVSRAVMREAFGALAALKLIDVGNGRKPRVGR
0.091

What does the data say about its soluble fraction (log2)? Entry: HMNEAVVVPDVKGLTLDEADEFFKNSKLRYNVVDSVFSKDVAPGAIVELVPVAGSKVKENRIVFVTINAQ
-0.517

What does the data say about its soluble fraction (log2)? Entry: HMESVQWSVFPSAKYVTIISFDPTTSGGSATAKFKVSDEARSKGFRFRIEAAIGEGIMRSEMYVIEE
-0.0704

What does the data say about its soluble fraction (log2)? Entry: HMLHQSLVVNAASGRVTVSLDIVPDEDNPYAVLRATDDSDEPLAQVRVAPSFKLNRASALAWIESQFARP
-0.128

---

ASSAY METHOD TEXT: soluble fraction after stress (log2 fold change); higher = more stays soluble; pooled small domains, quantitative proteomics
CONDITION DESCRIPTION: stress: pH 4
Let's look at some sequences and their measured soluble fraction (log2).
Lab note: jot down the number only; don't add units.

Answered cases to consult:
HMEQLIIQEELSGKRLDQLVSLLFPSLTRAHAQKLIKEGAVLVNEKPRKPAYAVMTGELLTVELPEPE; -0.755
HMDSNISVSEALEMVDKGSVKEIIVEGEKLYITNQDGKQYTSSKEVGVSLIELMKDSGIDPIKSDVNIIVK; -0.703

// next item, soluble fraction (log2) requested
What does the data say about its soluble fraction (log2)? Entry: HMPLDYQELRNISPQAARQAILQILKANKGNVSQTARMLGITRKTVYKAMAKREAGNLDDGSRAPK
0.265

---

Let's look at some sequences and their measured soluble fraction (log2).
ASSAY METHOD TEXT: soluble fraction after stress (log2 fold change); higher = more stays soluble; pooled small domains, quantitative proteomics
CONDITION DESCRIPTION: stress: pH 4
Lab note: jot down the number only; don't add units.

Answered cases to consult:
HMDTNVPVPNVNGMTLNQAKAALEAAGFHVAVNWLGEKSDNNSVISYEPNGSAAKGTTITITVIAQPEQDG; -0.507
HMGPSSIVVYVSGAVKTPGVYTLAPGSRVDDAVRAAGGLSERAESAGTNLAAQLSDGEHVHVAAAGE; -0.159
HMREIEVNYAAGDSVRVIDGPLAGFIGVVSSVEPDKNKVNVTVSMFGRETPVELELDQVETLD; -0.669
HMSNGYVTAKTTVNVRKSASESGERLGVIYQGDKLELVMNQADGWTKVKYKGQTAYVKSEFM; 0.161
HMKKVKVPNVVGMSLKEARDALSAVNIAVNQVAGSVEDKSVVTEQSLKAGDEVDEGSSLNLTTEYK; 0.412
HMVPAMEVALEDARRAIEQVVSGERTSVQLSSQEAMIRKLQHQMAKDANLFSRSSGVEPQRRVTIYTN; -0.478
HMENSMDTDWDVSGVDPSQYRLLFSTLGAIAGVKDVGLNPDGLKIIHTPEALPAIKQAFDANNLKLKMRTN; -0.251
HMRSFGTLRRLPSGRYQASYAGPDLRRHAAPTTFETKLDAEGWLRDEHRMIERDEWTAPAARSQLK; 0.0606
HMTTVTVGSKVRVKAGATFSDGAKPFAEVYNTVYDVQLLSHNGKEARIGIGDQWTGWIYISDLYLANQPAP; -0.101
HMQVLLTRREKEILKLIAEGLTSAEIGKRLFISTTTVDTHRKHLLEKLKAGNTAILIKTAVQLDLI; -0.223

What does the data say about its soluble fraction (log2)? Entry: HMTYKHLTIDEMKRFLSTREDSQSALVQFARVENVVGNRKGKYAVIKKWFLKNYKEEYNAFLS
0.0391

What does the data say about its soluble fraction (log2)? Entry: HMGRMSLDEAKAVILPIGEHKGHTMGEVLAIKPGLIDFYASQKFNSGKYPYLKEAAQVILENQG
0.173

What does the data say about its soluble fraction (log2)? Entry: HMGDVKLNAIYNFLKEFSALNGFPPSVREIGAKFGIKSTSTVHYYLEKLKQSGVIQQEENKKRAVVIN
-0.446

What does the data say about its soluble fraction (log2)? Entry: HMGAAIEYGDRGNTVLQAQRLLIARGYMAGSADGIYGRQMEQAVKRFQKEQGLPESGVVDRRTLQVLIRSR
0.04

What does the data say about its soluble fraction (log2)? Entry: HMELEIPGELIEAVRRLRDERQRMRLAGELAARQIQMHPERYTEASIDPVQTWDELRARILALA
-0.582

---

ASSAY METHOD TEXT: soluble fraction after stress (log2 fold change); higher = more stays soluble; pooled small domains, quantitative proteomics
CONDITION DESCRIPTION: stress: pH 4
RECORDED METRIC: soluble fraction (log2)
Lab note: jot down the number only; don't add units.

Answered cases to consult:
HMNEMIFNQKKIGQFFMNPETNSPMIYPLELGHKMKIIELKNGWYNVTDEKTGLNGWVKEEDFGVTKPLDS; 0.0629
HMREGIQLGDPVRVIRDPLFGKIGAVSGLPSELRAIPTESEVRVLEVRFPDGTTTVVPRANIEVIEG; -0.229
HMNTLSPVRILAILDGRSSMAEWQLAEELGVSIDNLSEILNKMSTDGQIRLVPSEDGRMVVP; -0.0347

What does the data say about its soluble fraction (log2)? Entry: HMSMSTVGERIKKKRKNLNFTQQELAAKLNISAQAVSKWENGVALPDLGLMPKLAQVLESTVDGLLGYQGA
-0.235

What does the data say about its soluble fraction (log2)? Entry: HMATARPPPPPESRVEVLFDGRWYAGTVVGGALDEHRATVFFDADRLSQVINFAETGIRVLGT
-0.575

What does the data say about its soluble fraction (log2)? Entry: HMDSKYLRIFSTLIDEMEKMSPGEQLQSERELSQRFQVSPMTVRRALHKLSTEGYTSAIPGKGTFVRK
-0.0388

What does the data say about its soluble fraction (log2)? Entry: HMTPDLSEFKERLRQILPGEPIEVRTANDGIVLSGTVTSIAALDRALDLAERYAPDKVSNLLSVG
0.365

What does the data say about its soluble fraction (log2)? Entry: HMAQLVVTVDKLNKRTAIPVTLSDKSSNDSVVEKGFRFEGFPFVNTATNGKKWYKDREGFFYWAGGLMEEA
-0.0297

What does the data say about its soluble fraction (log2)? Entry: HMRADYVGGLDPAGDNFLALRTGPGSGYAMILPMGPGTFVTVLRRNGKWLLVELEDGTRGWAYGSYILG
-1.16

What does the data say about its soluble fraction (log2)? Entry: HMDQTIFFGQQKAINNLSTDAGLSATELDEYLKKRYKRPLYQLTQAEGAEIIKGFQDGALSRSSILDYTK
0.22

What does the data say about its soluble fraction (log2)? Entry: HMSDKPIFIDTAGIAALSAIGFSKYQATIIFNYIKKGGAIYTVKDLAKIYSIDQKTIDLTQSKIIFS
0.22

What does the data say about its soluble fraction (log2)? Entry: HMNAELSTVQAAEVLNVSRPFLIKLLEDGAIPHRKVGKHRRVRMEDVMSYKAAIDTEREAVLDQLAA
-0.722

What does the data say about its soluble fraction (log2)? Entry: HMVQDDLRELEGISTELLAKLADAGITNRDDLADLAIDELVAITGQSEDDAKALIMKAREHWFAGDA
-1.09

What does the data say about its soluble fraction (log2)? Entry: HMDALIWYVSRGQQKFGPFNYFGVLKALQDKSVFEFDYVWKEGTENWVRLAEHELFSQEKVRELLA
-0.679

What does the data say about its soluble fraction (log2)? Entry: HMGEGIRIDSTAVVQVGEKMYAYLGGDGFSKEFWTNLPASGELAVTLKFEPIPMDAESLDFYEMPA
0.154

What does the data say about its soluble fraction (log2)? Entry: HMVPISGADFEKLSDYILQKAGAGSIQVKELLAGLKGMHEKNLWKAIDYLLAEEKIRIDKGGNISVK
-0.249

What does the data say about its soluble fraction (log2)? Entry: HMKYYIYQGVGASGELTKIAEVTDQKTYTVTGLQAKTTYRFAVSSYNGLRESTKSNIVTVTT
0.22

What does the data say about its soluble fraction (log2)? Entry: HMEPDEYTVRQAFMKFDVGGEGRVPRDKLKALLETLGLELSAQQVRESEEQLDPEGTGFTSYGDFLMWWN
-1.33

What does the data say about its soluble fraction (log2)? Entry: HMSLPKVLVPTDITVSQLAKYLEVDAIAIVKKLFGLGVVASLNQRLENEQMQLLGQEFGKDIIFTEN
-0.318

What does the data say about its soluble fraction (log2)? Entry: HMTEKIEWYKEVLELEPNSKVFFPLARMLAEEQRFDEAVAVLEHGLERHGEFLEARLFFIELLHET
-2.04

What does the data say about its soluble fraction (log2)? Entry: HMKEGGREEMSEIVERYGDERALMANITSVQNLMNNMKWTLDQALDALGIKGKERTLITQQLQ
-0.145

What does the data say about its soluble fraction (log2)? Entry: HMSIEHVPGYTTLSKREQEIVHALLTRKTPEELADDLSISINTLNKHISHIYHKLGIRGRMQLFDYA
-0.0894
